# credit: patent US10538555B2

Reported IC50 by item:
- System tested: Human PD-L1/PD-1 (Homo sapiens, UniProt Q9NZQ7)
- Construct: TVMV protease cleavage site (C); made in house; host or cells: HEK293T cells
- Sequence (Q9NZQ7 with tags, fused parts or gaps): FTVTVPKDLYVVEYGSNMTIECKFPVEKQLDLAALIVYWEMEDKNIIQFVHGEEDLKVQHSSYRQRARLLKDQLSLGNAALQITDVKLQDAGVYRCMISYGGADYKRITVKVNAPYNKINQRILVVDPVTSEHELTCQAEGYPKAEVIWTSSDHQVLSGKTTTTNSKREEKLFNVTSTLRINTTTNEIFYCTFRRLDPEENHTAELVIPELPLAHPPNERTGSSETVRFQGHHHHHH
- Assay summary: HTRF Human PD-L1/PD-1 binding assay (PD-1-Ig/PD-L1-His)
- Test conditions: PD-L1-His 10 nM, PD-1-Ig 20 nM; class symbol; read-out: HTRF Human PD-L1/PD-1 Binding Assay IC50 Range
Where a SMILES comes first, the peptide text is derived from it. Bridges are numbered along the chain shown (N, C = ends). [ ]: non-standard residue; d: D form. ξ: configuration not given here. Hyp = O=C(O)[C@@H]1C[C@@H](O)CN1; NMeF = CN[C@@H](Cc1ccccc1)C(=O)O; NMeNle = CCCC[C@H](NC)C(=O)O; NMeS = CN[C@@H](CO)C(=O)O; Pip = O=C(O)[C@@H]1CCCCN1; hSer = N[C@@H](CCO)C(=O)O; NMeA = CN[C@@H](C)C(=O)O; Orn = NCCC[C@H](N)C(=O)O; Dap = NC[C@H](N)C(=O)O; ξC = NC(CS)C(=O)O

Molecule	IC50
CCCC[C@H]1C(=O)N(C)[C@@H](CO)C(=O)N[C@@H](CCC(=O)O)C(=O)N[C@H](C(=O)NCC(N)=O)CSCC(=O)N[C@@H](Cc2ccc(O)cc2)C(=O)N2CCCC[C@H]2C(=O)N[C@@H](CC(=O)O)C(=O)N2CCC[C@H]2C(=O)N[C@@H](CN)C(=O)N[C@@H](CCC(=O)O)C(=O)N2C[C@H](O)C[C@H]2C(=O)N[C@@H](Cc2c[nH]c3ccccc23)C(=O)N[C@@H](CO)C(=O)N[C@@H](Cc2c[nH]c3ccccc23)C(=O)N1C [Example 1309] ({CH2CO}-Y[Pip]DP[Dap]E[Hyp]WSW[NMeNle][NMeS]ECG-NH2; thioether N-14)	0.01 to 0.0999 µM
CCCC[C@H]1C(=O)N[C@@H](CC(N)=O)C(=O)N2CCC[C@H]2C(=O)N[C@@H](CO)C(=O)N[C@@H](CCO)C(=O)N2C[C@H](O)C[C@H]2C(=O)N[C@@H](Cc2c[nH]c3ccccc23)C(=O)N[C@@H](CO)C(=O)N[C@@H](Cc2c[nH]c3ccccc23)C(=O)N(C)[C@@H](C)C(=O)N(C)[C@@H](C)C(=O)N[C@@H](CCCN)C(=O)NC(C(=O)NCC(N)=O)CSCC(=O)N[C@@H](Cc2ccc(O)cc2)C(=O)N1C (stereo partly shown) [Example 10213] ({CH2CO}-Y[NMeNle]NPS[hSer][Hyp]WSW[NMeA][NMeA][Orn][ξC]G-NH2; thioether N-14)	1 to 10 µM
CCCC[C@H]1C(=O)N2CCC[C@@H]2C(=O)N[C@@H](CC(=O)O)C(=O)N[C@@H](C)C(=O)N(C)[C@@H](Cc2ccccc2)C(=O)N[C@@H](Cc2ccc(O)cc2)C(=O)N2CCC[C@@H]2C(=O)N[C@@H](Cc2c[nH]c3ccccc23)C(=O)N[C@@H](Cc2ccc(O)cc2)C(=O)N[C@@H](CC(C)C)C(=O)N[C@H](C(=O)NCC(N)=O)CSCC(=O)N[C@@H](Cc2ccccc2)C(=O)N(C)[C@@H](Cc2ccccc2)C(=O)N1C [Example 10076] ({CH2CO}-F[NMeF][NMeNle][dP]DA[NMeF]Y[dP]WYLCG-NH2; thioether N-13)	0.01 to 0.0999 µM
CCCC[C@H]1C(=O)N(C)[C@@H](CCCC)C(=O)N[C@@H](C)C(=O)N[C@H](C(=O)NCC(N)=O)CSCC(=O)N[C@@H](Cc2ccc(O)cc2)C(=O)N2CCNC[C@H]2C(=O)N[C@@H](CC(N)=O)C(=O)N2CCC[C@H]2C(=O)N[C@@H](Cc2cnc[nH]2)C(=O)N[C@@H](CCC(N)=O)C(=O)N2C[C@H](O)C[C@H]2C(=O)N[C@@H](Cc2c[nH]c3ccccc23)C(=O)N[C@@H](CO)C(=O)N[C@@H](Cc2c[nH]c3ccccc23)C(=O)N1C [Example 1275]	0.001 to 0.0099 µM

====

- System tested: Human PD-L1/PD-1 (Homo sapiens)
- Construct: TVMV protease cleavage site (C); made in house; host or cells: HEK293T cells
- Assay summary: HTRF Human PD-L1/PD-1 binding assay (PD-1-Ig/PD-L1-His)
- Test conditions: PD-L1-His 10 nM, PD-1-Ig 20 nM; class symbol; read-out: HTRF Human PD-L1/PD-1 Binding Assay IC50 Range
Where a SMILES comes first, the peptide text is derived from it. Bridges are numbered along the chain shown (N, C = ends). [ ]: non-standard residue; d: D form. Trp(5-Cl) = N[C@@H](Cc1c[nH]c2ccc(Cl)cc12)C(=O)O; Hyp = O=C(O)[C@@H]1C[C@@H](O)CN1; NMeF = CN[C@@H](Cc1ccccc1)C(=O)O; NMeNle = CCCC[C@H](NC)C(=O)O; NMeA = CN[C@@H](C)C(=O)O; Dap = NC[C@H](N)C(=O)O; Sar = CNCC(=O)O

Molecule	System tested	IC50
CCCC[C@H]1C(=O)N(C)CC(=O)N[C@@H](CC(=O)O)C(=O)N[C@@H](C(C)C)C(=O)N(C)[C@@H](Cc2ccccc2)C(=O)N[C@@H](Cc2ccc(O)cc2)C(=O)N(C)CC(=O)N[C@@H](Cc2c[nH]c3ccc(Cl)cc23)C(=O)N[C@@H](Cc2ccc(O)cc2)C(=O)N[C@@H](CC(C)C)C(=O)N[C@H](C(=O)NCC(N)=O)CSCC(=O)N[C@@H](Cc2ccccc2)C(=O)N(C)[C@@H](Cc2ccccc2)C(=O)N1C [Example 3236] ({CH2CO}-F[NMeF][NMeNle][Sar]DV[NMeF]Y[Sar][Trp(5-Cl)]YLCG-NH2; thioether N-13)	Human PD-L1/PD-1 (Homo sapiens)	10 to 99.9 nM
CCCC[C@H]1C(=O)N(C)[C@@H](CCCC)C(=O)N[C@@H](CCC(=O)O)C(=O)N[C@H](C(=O)NCC(N)=O)CSCC(=O)N[C@@H](Cc2ccc(O)cc2)C(=O)N(C)[C@@H](C)C(=O)N[C@@H](CC(N)=O)C(=O)N2CCC[C@H]2C(=O)N[C@@H](CN)C(=O)N[C@@H](CCC(N)=O)C(=O)N2C[C@H](O)C[C@H]2C(=O)N[C@@H](Cc2c[nH]c3ccccc23)C(=O)N[C@@H](CO)C(=O)N[C@@H](Cc2c[nH]c3ccccc23)C(=O)N1C [Example 5208] ({CH2CO}-Y[NMeA]NP[Dap]Q[Hyp]WSW[NMeNle][NMeNle]ECG-NH2; thioether N-14)	Human PD-L1/PD-1 (Homo sapiens)	1 to 9.9 nM

====

- System tested: Human PD-L1/PD-1 (Homo sapiens)
- Construct: TVMV protease cleavage site (C); made in house; host or cells: HEK293T cells
- Assay summary: HTRF Human PD-L1/PD-1 binding assay (PD-1-Ig/PD-L1-His)
- Test conditions: PD-L1-His 10 nM, PD-1-Ig 20 nM; class symbol; read-out: HTRF Human PD-L1/PD-1 Binding Assay IC50 Range
Where a SMILES comes first, the peptide text is derived from it. Bridges are numbered along the chain shown (N, C = ends). [ ]: non-standard residue; d: D form. Phe(4-F) = N[C@@H](Cc1ccc(F)cc1)C(=O)O; Bta = N[C@@H](Cc1csc2ccccc12)C(=O)O; Hyp = O=C(O)[C@@H]1C[C@@H](O)CN1; NMeF = CN[C@@H](Cc1ccccc1)C(=O)O; NMeNle = CCCC[C@H](NC)C(=O)O; Pip = O=C(O)[C@@H]1CCCCN1; Dab = NCC[C@H](N)C(=O)O

Compound	IC50
CCCC[C@H]1C(=O)N(C)[C@@H](CCCC)C(=O)N[C@@H](CC(C)C)C(=O)N[C@H](C(=O)NCC(N)=O)CSCC(=O)N[C@@H](Cc2ccc(O)cc2)C(=O)N2CCCC[C@H]2C(=O)N[C@@H](CC(=O)O)C(=O)N2CCC[C@H]2C(=O)N[C@@H](Cc2cnc[nH]2)C(=O)N[C@@H](CCC(N)=O)C(=O)N2C[C@H](O)C[C@H]2C(=O)N[C@@H](Cc2c[nH]c3ccccc23)C(=O)N[C@@H](CO)C(=O)N[C@@H](Cc2csc3ccccc23)C(=O)N1C [Example 1511] ({CH2CO}-Y[Pip]DPHQ[Hyp]WS[Bta][NMeNle][NMeNle]LCG-NH2; thioether N-14)	1 to 9.9 nM
CCCC[C@H]1C(=O)N2CCC[C@@H]2C(=O)N[C@@H](CC(=O)O)C(=O)N[C@@H](C(C)C)C(=O)N(C)[C@@H](Cc2ccccc2)C(=O)N[C@@H](CCN)C(=O)N2CCC[C@@H]2C(=O)N[C@@H](Cc2c[nH]c3ccccc23)C(=O)N[C@@H](Cc2ccc(O)cc2)C(=O)N[C@@H](CC(C)C)C(=O)N[C@H](C(=O)NCC(N)=O)CSCC(=O)N[C@@H](Cc2ccc(F)cc2)C(=O)N(C)[C@@H](Cc2ccccc2)C(=O)N1C [Example 10105] ({CH2CO}-[Phe(4-F)][NMeF][NMeNle][dP]DV[NMeF][Dab][dP]WYLCG-NH2; thioether N-13)	1 to 9.9 nM
